# Lookup of reported MIC keyed by entry
test system: Bacillus substilis ATCC 6633; experiment: In vitro antibacterial activity (MIC); type: cell-based; conditions: ATCC6633; Bacillus substilis ATCC 6633; in vitro; sodium salts; read-out: MIC

See these solved cases before continuing.
Cc1nnc(SCC2=C(C(=O)O)N3C(=O)[C@@H](NC(=O)Cn4cnnn4)[C@H]3SC2)s1 [CEZ, sodium cefazolin, reference compound]; < 0.05 µg/mL
CCN1CCN(C(=O)N[C@@H](C(=O)NC2C(=O)N3C(C(=O)O)=C(CSc4nncs4)CS[C@H]23)c2ccc(OC(C)=O)cc2)C(=O)C1=O (single isomer, unassigned); 12.5 µg/mL
CCN1CCN(C(=O)N[C@@H](C(=O)N[C@@H]2C(=O)N3[C@@H]2SC(C)(C)[C@@H]3C(=O)O)c2ccccc2)C(=O)C1=O [C, reference compound]; 0.39 µg/mL
CCOC(=O)Oc1ccc([C@@H](NC(=O)N2CCN(CC)C(=O)C2=O)C(=O)NC2C(=O)N3C(C(=O)O)=C(CSc4nncs4)CS[C@H]23)cc1Cl (single isomer, unassigned); 0.39 µg/mL

Next up:
Exercise: Sample CCOC(=O)Oc1ccc([C@@H](NC(=O)N2CCN(CC)C(=O)C2=O)C(=O)NC2C(=O)N3C(C(=O)O)=C(CSc4nncs4)CS[C@H]23)cc1 (single isomer, unassigned) — what was its MIC?
Key: 0.78 µg/mL

---

Measured MIC by item
system: Bacillus substilis ATCC 6633; assay: In vitro antibacterial activity (MIC); assay type: cell-based; settings: ATCC6633; Bacillus substilis ATCC 6633; in vitro; sodium salts; read-out: MIC
# output: bare number, implied unit µg/mL

CCN1CCN(C(=O)N[C@@H](C(=O)NC2C(=O)N3C(C(=O)O)=C(CSc4nncs4)CS[C@H]23)c2ccc(OC(C)=O)c(Cl)c2)C(=O)C1=O (single isomer, unassigned); 6.25

Exercise: Need MIC of CCN1CCN(C(=O)N[C@@H](C(=O)NC2C(=O)N3C(C(=O)O)=C(CSc4nncs4)CS[C@H]23)c2ccc(O)c(Cl)c2)C(=O)C1=O (single isomer, unassigned) , thanks.
Key: 0.39

---

tested on: Klebsilla pneumoniae; test: In vitro antibacterial activity (MIC); format: cell-based
MEASURED ENDPOINT: MIC (µg/mL)
Number in µg/mL, nothing else.

Recorded MIC, per entry:
CCN1CCN(C(=O)N[C@@H](C(=O)N[C@@H]2C(=O)N3[C@@H]2SC(C)(C)[C@@H]3C(=O)O)c2ccccc2)C(=O)C1=O [C, reference compound]; 3.13
CC1=C(C(=O)O)N2C(=O)[C@@H](NC(=O)[C@H](N)c3ccccc3)[C@H]2SC1 [CEX, sodium cephalexin, reference compound]; 3.13

Exercise: Request the reported MIC associated with CC1(C)S[C@@H]2[C@H](NC(=O)C(C(=O)O)c3ccccc3)C(=O)N2[C@H]1C(=O)O (some centres unmarked) [CB-PC, sodium carbenicillin, reference compound]
Key: 6.25

Exercise: Form field: reported MIC of CCOC(=O)Oc1ccc([C@@H](NC(=O)N2CCN(CC)C(=O)C2=O)C(=O)NC2C(=O)N3C(C(=O)O)=C(CSc4nncs4)CS[C@H]23)cc1Cl (single isomer, unassigned) [VI]
Key: 1.56

Exercise: Which MIC is reported for this molecule? CCN1CCN(C(=O)N[C@@H](C(=O)NC2C(=O)N3C(C(=O)[O-])=C(CSc4nncs4)CS[C@H]23)c2ccc(O)cc2)C(=O)C1=O.[Na+] (single isomer, unassigned)
Key: 0.1
